biological target: Non-receptor tyrosine-protein kinase TYK2 (Homo sapiens, UniProt P29597); assay: Inhibition of TYK2 in human Jurkat cells assessed as reduction in IFN-alpha stimulated TYK2 phosphorylation by […] Western blot analysis
measurementLabel: IC50 (nM)

NC(=O)c1nc(-c2c(F)cccc2Cl)oc1Nc1ccc(C(=O)N2CCOCC2)cc1: 0.6

* * *

Recorded IC50 for the following molecules
biological target: PI3K p110 beta/p85 alpha (Homo sapiens, UniProt P42338); assay: Inhibition of human full length recombinant N-terminal His-tagged PI3Kbeta/p85alpha expressed in baculovirus infected Sf21 insect cells
Sequence (P27986 whole entry): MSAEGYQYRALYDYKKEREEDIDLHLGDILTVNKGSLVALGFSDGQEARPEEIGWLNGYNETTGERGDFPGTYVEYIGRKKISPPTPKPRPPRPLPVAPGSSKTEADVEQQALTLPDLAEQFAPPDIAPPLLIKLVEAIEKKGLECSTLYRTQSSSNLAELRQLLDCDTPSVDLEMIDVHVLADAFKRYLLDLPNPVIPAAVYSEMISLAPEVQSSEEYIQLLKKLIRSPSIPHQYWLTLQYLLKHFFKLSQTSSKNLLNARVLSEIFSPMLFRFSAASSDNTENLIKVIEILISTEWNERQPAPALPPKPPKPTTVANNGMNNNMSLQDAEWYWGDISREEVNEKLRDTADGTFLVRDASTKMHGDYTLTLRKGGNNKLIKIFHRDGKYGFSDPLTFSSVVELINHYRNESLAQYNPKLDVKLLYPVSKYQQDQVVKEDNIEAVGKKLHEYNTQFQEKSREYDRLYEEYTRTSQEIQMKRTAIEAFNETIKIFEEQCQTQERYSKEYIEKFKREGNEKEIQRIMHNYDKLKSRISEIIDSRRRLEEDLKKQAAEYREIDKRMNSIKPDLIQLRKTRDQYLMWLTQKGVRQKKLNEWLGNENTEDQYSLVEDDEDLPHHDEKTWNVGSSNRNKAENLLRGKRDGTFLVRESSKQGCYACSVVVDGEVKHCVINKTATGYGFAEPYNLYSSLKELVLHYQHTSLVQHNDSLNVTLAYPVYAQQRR
Sequence (P42338 whole entry): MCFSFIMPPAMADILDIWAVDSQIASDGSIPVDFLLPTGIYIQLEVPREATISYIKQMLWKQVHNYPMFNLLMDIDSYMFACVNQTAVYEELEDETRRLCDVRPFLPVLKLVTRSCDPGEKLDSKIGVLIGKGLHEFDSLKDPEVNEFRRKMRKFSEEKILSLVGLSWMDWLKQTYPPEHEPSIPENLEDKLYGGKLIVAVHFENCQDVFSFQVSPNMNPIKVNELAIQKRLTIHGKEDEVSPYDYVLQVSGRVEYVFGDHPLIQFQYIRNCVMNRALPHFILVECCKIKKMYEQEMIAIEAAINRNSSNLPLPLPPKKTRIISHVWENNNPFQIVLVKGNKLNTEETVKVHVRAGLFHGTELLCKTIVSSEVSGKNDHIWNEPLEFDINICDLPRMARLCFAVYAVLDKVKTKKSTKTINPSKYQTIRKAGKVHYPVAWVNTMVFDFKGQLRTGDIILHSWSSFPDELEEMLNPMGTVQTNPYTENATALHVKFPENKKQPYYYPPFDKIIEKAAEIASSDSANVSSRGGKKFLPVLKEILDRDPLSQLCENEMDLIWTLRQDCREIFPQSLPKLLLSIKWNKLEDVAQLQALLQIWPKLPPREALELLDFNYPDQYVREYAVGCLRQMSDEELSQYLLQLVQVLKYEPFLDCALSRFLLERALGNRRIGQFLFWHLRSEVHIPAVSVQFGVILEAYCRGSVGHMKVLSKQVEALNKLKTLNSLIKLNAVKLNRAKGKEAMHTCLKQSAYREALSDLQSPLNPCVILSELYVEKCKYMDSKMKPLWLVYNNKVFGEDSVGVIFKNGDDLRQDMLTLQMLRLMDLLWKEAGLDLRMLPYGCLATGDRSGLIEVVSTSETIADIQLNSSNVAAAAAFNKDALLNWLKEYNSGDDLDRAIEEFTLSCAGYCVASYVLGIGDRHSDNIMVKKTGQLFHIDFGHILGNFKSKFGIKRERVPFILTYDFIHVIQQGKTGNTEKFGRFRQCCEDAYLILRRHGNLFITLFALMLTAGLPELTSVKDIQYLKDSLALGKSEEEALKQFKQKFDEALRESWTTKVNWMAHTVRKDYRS
measurementLabel: IC50 (µM)

Fc1ccc2[nH]ccc2c1-c1nc(N2CCOCC2)c2sc(CN3CCN(CC4CC4)CC3)cc2n1: 1.08
Cc1csc2nc([C@H](C)Nc3ncnc4[nH]cnc34)c(-c3cccc(F)c3)c(=O)n12: 3.75

* * *

target: Tyrosine-protein kinase JAK1 (Homo sapiens, UniProt P23458); assay: Inhibition of JAK1 in human Jurkat cells assessed as reduction in IFN-alpha stimulated JAK1 phosphorylation by […] Western blot analysis; format: cell-based
Sequence (P23458 whole entry): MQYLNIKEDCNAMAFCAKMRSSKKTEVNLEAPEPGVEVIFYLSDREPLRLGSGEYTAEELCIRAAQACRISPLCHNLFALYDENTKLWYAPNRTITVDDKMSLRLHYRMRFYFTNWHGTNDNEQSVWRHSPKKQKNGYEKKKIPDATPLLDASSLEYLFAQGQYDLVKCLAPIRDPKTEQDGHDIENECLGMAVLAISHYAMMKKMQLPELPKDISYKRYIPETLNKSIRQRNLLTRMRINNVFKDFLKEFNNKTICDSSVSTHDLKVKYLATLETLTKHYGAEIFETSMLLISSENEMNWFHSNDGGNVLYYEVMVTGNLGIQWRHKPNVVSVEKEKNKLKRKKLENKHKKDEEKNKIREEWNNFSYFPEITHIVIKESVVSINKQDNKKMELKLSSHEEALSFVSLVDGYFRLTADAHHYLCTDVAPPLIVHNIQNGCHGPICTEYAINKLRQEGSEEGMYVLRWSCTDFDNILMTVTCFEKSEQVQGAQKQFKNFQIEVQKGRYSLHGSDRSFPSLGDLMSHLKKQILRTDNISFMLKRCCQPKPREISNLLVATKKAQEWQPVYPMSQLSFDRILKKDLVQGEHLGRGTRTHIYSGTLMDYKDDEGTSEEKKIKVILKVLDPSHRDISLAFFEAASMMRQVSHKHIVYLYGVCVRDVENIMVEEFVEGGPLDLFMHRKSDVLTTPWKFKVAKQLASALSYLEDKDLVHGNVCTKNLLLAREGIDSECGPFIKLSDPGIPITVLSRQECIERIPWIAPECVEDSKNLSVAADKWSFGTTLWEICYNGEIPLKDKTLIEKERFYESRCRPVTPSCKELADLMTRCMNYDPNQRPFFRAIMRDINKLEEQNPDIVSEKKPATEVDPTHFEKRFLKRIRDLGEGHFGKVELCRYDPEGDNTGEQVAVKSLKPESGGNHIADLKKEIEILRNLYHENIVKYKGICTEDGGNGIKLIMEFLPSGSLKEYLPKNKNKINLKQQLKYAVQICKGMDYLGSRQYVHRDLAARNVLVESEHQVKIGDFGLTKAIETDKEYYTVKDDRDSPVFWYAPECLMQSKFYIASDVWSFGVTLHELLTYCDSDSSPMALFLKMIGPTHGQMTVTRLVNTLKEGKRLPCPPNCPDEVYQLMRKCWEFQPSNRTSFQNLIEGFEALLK
measurementLabel: IC50 (nM)

NC(=O)c1nc(-c2c(F)cccc2Cl)oc1Nc1ccc(C(=O)N2CCOCC2)cc1: 23

* * *

molecular target: PI3-kinase p110-alpha/p85-alpha (Homo sapiens)
Sequence (P27986 whole entry): as the sequence (P27986 whole entry) above
Sequence (P42336 whole entry): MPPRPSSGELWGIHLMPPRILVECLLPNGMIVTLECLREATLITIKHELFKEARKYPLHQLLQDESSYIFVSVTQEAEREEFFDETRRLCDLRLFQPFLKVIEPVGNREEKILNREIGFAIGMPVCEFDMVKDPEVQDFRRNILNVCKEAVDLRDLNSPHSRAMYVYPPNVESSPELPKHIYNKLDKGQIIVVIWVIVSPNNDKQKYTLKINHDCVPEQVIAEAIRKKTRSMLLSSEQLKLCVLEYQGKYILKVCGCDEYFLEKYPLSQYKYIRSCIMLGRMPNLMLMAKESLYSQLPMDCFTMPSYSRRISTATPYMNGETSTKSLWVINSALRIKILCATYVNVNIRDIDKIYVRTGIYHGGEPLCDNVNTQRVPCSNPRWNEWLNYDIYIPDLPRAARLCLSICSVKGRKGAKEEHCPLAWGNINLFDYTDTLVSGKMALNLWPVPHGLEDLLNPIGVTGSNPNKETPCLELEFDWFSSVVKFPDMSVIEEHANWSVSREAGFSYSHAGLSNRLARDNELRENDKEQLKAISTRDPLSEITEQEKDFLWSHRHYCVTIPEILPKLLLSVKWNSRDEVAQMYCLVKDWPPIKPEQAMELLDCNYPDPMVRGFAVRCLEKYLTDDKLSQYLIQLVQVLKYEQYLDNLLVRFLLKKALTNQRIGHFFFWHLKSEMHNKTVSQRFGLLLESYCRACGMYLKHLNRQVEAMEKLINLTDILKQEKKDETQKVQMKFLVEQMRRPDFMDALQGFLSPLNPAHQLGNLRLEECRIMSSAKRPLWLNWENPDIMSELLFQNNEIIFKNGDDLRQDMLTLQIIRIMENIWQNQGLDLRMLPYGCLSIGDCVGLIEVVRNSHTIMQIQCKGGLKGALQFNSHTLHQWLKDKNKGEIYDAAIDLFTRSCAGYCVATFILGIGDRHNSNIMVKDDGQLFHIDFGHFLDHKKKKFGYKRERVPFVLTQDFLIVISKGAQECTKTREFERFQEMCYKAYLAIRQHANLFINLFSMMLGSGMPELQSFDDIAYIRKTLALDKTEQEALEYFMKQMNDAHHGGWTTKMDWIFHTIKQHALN
measurementLabel: IC50 (µM)

Fc1ccc2[nH]ccc2c1-c1nc(N2CCOCC2)c2sc(CN3CCN(CC4CC4)CC3)cc2n1: 2.3

Hello, the source for this data is ChEMBL document CHEMBL4330088, in case you need it.
